Provenance of the data: patent US20160039903A1

Target: T1, recombinant biotinylated human PD-L1 ectodomain (IgV and IgC domains, residues 19-239) (human, UniProt Q9NZQ7 19-239, enzymatically biotinylated (BirA) on the biotin acceptor peptide)
T1 construct: also called biotinylated hPD-L1; biotinylated PD-L1; not shown: carboxy-terminal 8x histidine tag
T1 sequence (Q9NZQ7 other isoform, or with tags, fused parts or gaps): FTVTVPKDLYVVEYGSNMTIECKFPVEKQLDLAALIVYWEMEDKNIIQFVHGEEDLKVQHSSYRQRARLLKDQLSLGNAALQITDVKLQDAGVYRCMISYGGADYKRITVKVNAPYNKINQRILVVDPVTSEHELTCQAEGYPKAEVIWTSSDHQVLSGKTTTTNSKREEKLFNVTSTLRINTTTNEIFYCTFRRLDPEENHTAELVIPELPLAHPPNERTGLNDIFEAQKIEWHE
Assay: surface plasmon resonance, biotinylated hPD-L1 immobilized on a streptavidin chip; column head 'PD-L1 affinity'
Kindly state Kd for each of the entries shown.
Reply numerically in nM, unit not repeated.

Input: Which Kd value is on record for G2 4-12 (designed binder, also called Generation 2, clone 4-12) PD-1 variant IgV domain: DSPDRPWNPPTFSPALLVVTEGDNATFTCSFSNTSESFHVVWHYESPSGQTDTLAAFPEDRSQPGQDARFRVTQLPNGRDFHLSVVRARRNDSGTYVCGIISLAPKIQIKESLRAELRVTER ?
Output: 0.218

Input: So what's the measured Kd for this one? G2 4-1 (Generation 2, clone 4-1) (designed binder) DSPDRPWNPPTFSPALLVVTEGDNATFTCSFSNTSESFHVVWHRESPSGQTDTLAAFPEDRSQPGPDARFRVTQLPNGRDFHLSVVRARRNDSGTYVCGAISLAPKIQIKESLRAELRVTERHHHHHHHH
Output: 0.267

Input: Name the recorded Kd for G1 4-4 (designed binder, also called Generation 1, clone 4-4) PD-1 variant IgV domain: DSPDRPWNPPTFSPALLVVTEGDNATFTCSFSNTSESFRLVWHRESPNNHAYTLALFPEDRSLPFPDCRFRVTQLPNGRDFHMSVVRARRNDSGTYICGAITFDPRIQIKESLRAELRVTER .
Output: 10.7
